compounds and their reported inhibition at 10 µM
- Assay Target: Serotonin 5-HT5A (Homo sapiens, UniProt P47898)
- Construct: host or cells: CHO-K1
- Sequence (P47898 whole entry): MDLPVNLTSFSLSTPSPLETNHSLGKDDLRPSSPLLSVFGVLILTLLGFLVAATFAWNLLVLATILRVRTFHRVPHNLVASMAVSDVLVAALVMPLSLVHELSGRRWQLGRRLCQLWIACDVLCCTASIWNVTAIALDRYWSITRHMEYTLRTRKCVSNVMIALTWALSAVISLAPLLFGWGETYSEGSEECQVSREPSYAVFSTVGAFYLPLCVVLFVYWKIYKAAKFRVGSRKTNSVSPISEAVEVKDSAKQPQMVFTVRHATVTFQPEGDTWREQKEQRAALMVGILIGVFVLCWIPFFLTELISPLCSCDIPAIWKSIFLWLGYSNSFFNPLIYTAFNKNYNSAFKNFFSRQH
- Assay Details: Radioligand displacement binding assay, [3H]LSD, 5-HT5A
- Condition Parameters: 10 μM
Supply the numeric figure in %, leaving out any unit text.

Observe how each entry below is paired with its result.
| Compound | inhibition at 10 µM (%) |
| --- | --- |
| CCC1=N[C@H](C)CC1(c1ccccc1)c1ccccc1 [(R)-EMDP] | 0 |
| CC[C@@H](O)C(C[C@@H](C)N)(c1ccccc1)c1ccccc1 | -4 |

Switching to the query record.
Item "CC[C@@H](O)C(C[C@H](C)NC)(c1ccccc1)c1ccccc1" has what recorded inhibition at 10 µM?
15

====

- Assay Target: Norepinephrine transporter NET (Homo sapiens, UniProt P23975)
- Construct: host or cells: MDCK
- Sequence (P23975 whole entry): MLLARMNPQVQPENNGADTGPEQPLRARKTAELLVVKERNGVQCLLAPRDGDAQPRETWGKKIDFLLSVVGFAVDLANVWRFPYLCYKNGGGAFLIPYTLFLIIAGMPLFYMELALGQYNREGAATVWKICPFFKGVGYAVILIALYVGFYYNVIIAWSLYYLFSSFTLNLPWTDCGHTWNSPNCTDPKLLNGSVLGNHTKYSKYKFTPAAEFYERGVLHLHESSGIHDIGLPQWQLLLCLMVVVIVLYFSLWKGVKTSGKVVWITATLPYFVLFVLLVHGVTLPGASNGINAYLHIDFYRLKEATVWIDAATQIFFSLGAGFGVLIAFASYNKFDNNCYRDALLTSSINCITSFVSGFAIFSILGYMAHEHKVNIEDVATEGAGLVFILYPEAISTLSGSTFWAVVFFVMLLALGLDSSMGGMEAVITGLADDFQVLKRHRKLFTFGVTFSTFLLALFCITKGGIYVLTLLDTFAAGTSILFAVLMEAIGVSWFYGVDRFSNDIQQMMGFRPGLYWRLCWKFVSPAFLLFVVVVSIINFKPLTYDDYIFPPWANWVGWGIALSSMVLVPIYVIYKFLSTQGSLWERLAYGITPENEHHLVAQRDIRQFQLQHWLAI
- Assay Details: Radioligand displacement binding assay, [125I]RTI-55, NET
- Condition Parameters: 10 μM
We use 10% as the dividing line for inhibition at 10 µM: on or above the line is Met, below is Not met.

// known answers, use as guide
| Compound | Cat |
| --- | --- |
| CC[C@H](O)C(C[C@@H](C)N)(c1ccccc1)c1ccccc1 | Met |
| CC[C@H](O)C(C[C@H](C)N)(c1ccccc1)c1ccccc1 | Not met |
| CC[C@@H](O)C(C[C@H](C)N)(c1ccccc1)c1ccccc1 | Not met |

Turning to the following compound.
Decide: inhibition at 10 µM of CCC(=O)C(C[C@H](C)N(C)C)(c1ccccc1)c1ccccc1 [(S)-methadone, reference compound] >= 10%?
Met

====

- Assay Target: Serotonin 5-HT2A (Homo sapiens)
- Construct: host or cells: CHO-K1
- Sequence (P28223 whole entry): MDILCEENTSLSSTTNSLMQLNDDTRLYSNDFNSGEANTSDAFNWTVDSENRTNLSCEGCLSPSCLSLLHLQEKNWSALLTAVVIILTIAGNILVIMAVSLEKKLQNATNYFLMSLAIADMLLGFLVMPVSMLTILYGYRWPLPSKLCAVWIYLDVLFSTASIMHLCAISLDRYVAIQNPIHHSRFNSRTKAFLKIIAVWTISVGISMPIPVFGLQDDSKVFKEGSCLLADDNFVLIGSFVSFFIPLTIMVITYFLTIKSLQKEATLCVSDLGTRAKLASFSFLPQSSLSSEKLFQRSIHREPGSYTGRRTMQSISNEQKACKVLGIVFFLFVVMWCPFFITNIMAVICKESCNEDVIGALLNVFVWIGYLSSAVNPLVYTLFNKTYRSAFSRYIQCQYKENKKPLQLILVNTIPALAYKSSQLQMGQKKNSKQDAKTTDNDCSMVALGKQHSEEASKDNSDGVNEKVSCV
- Assay Details: Radioligand displacement binding assay, [3H]ketanserin, 5-HT2A
- Condition Parameters: 0.3 μM
Property Label: inhibition at 0.3 µM
Record the result as number plus unit.

Observe how each entry below is paired with its result.
| Compound | inhibition at 0.3 µM |
| --- | --- |
| CCC1=N[C@H](C)CC1(c1ccccc1)c1ccccc1 [(R)-EMDP] | 4% |
| CC[C@H](O)C(C[C@H](C)NC)(c1ccccc1)c1ccccc1 | -10% |
| CCC(=O)C(C[C@H](C)N(C)C)(c1ccccc1)c1ccccc1 [(S)-methadone, reference compound] | 22% |
| CC[C@@H](O)C(C[C@@H](C)NC)(c1ccccc1)c1ccccc1 | 0% |
| CC[C@H](O)C(C[C@@H](C)NC)(c1ccccc1)c1ccccc1 | -3% |

Item "CC[C@H](O)C(C[C@@H](C)N)(c1ccccc1)c1ccccc1" has what recorded inhibition at 0.3 µM?
9%

Item "CC[C@H](O)C(C[C@H](C)N)(c1ccccc1)c1ccccc1" has what recorded inhibition at 0.3 µM?
12%

Item "CC[C@@H](O)C(C[C@H](C)N)(c1ccccc1)c1ccccc1" has what recorded inhibition at 0.3 µM?
6%

Item "CC[C@@H](O)C(C[C@@H](C)N)(c1ccccc1)c1ccccc1" has what recorded inhibition at 0.3 µM?
6%

Item "CC[C@@H](O)C(C[C@H](C)NC)(c1ccccc1)c1ccccc1" has what recorded inhibition at 0.3 µM?
0%

====

- Assay Target: GluN1-GluN2B NMDAR subtype (Homo sapiens, UniProt Q05586+Q13224)
- Construct: host or cells: NR1-2B-CHO cells, constitutive expression
- Sequence (Q13224 27-1484, other chains not shown): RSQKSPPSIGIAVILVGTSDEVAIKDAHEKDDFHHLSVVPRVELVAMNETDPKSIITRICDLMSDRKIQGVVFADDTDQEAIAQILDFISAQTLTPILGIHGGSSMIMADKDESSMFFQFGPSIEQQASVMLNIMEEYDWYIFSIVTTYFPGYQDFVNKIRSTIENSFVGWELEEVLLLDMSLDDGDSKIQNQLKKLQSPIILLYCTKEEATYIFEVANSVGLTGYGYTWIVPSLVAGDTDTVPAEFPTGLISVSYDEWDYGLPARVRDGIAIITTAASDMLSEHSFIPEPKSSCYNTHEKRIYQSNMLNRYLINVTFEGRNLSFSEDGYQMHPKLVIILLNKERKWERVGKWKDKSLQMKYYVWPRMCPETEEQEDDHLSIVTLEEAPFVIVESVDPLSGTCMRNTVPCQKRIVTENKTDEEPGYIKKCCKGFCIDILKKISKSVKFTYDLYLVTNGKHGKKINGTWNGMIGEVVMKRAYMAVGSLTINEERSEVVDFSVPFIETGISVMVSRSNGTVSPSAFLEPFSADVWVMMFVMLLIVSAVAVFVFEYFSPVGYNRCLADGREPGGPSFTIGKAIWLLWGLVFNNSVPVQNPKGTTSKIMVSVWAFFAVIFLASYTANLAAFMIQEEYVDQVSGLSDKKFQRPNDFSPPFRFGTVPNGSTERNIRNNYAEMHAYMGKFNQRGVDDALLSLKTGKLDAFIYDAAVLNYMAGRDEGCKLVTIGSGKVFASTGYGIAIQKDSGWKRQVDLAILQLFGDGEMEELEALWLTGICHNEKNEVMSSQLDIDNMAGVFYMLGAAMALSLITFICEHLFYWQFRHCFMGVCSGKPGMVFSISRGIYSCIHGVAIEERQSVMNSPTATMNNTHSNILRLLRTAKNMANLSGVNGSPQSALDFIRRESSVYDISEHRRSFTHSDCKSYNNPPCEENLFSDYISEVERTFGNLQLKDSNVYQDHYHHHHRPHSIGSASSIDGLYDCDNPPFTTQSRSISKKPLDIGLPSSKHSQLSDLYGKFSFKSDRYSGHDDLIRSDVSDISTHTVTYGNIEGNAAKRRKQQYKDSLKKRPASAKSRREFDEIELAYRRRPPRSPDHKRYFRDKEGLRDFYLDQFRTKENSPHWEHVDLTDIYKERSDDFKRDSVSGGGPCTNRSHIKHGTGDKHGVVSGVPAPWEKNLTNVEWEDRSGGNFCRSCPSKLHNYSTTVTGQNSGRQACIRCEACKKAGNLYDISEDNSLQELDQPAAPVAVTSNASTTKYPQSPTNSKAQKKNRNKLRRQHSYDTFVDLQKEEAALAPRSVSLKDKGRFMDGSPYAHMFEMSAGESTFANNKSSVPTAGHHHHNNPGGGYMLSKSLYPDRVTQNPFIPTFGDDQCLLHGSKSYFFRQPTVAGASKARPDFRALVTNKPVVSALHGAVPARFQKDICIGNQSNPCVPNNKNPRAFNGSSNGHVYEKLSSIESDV
- Assay Details: FLIPR/Ca2+ assay, NMDAR GluN1-GluN2B subtype in CHO cells
- Type: cell-based
- Condition Parameters: CHO cells, 10 μM L-glutamate and 10 μM glycine; n.d. = 50% of inhibition could not be reached at the highest concentration used
We use 5 as the dividing line for pIC50 (mean ± SEM) GluN1-GluN2B: on or above the line is criterion met, below is criterion not met.

| Compound | Assay Target | Cat |
| --- | --- | --- |
| CC[C@H](O)C(C[C@H](C)NC)(c1ccccc1)c1ccccc1 [(3S,6S)-NML] | GluN1-GluN2B NMDAR subtype (Homo sapiens, UniProt Q05586+Q13224) | criterion not met |
| CC[C@H](O)C(C[C@H](C)N(C)C)(c1ccccc1)c1ccccc1 [(3S,6S)-ML] | GluN1-GluN2B NMDAR subtype (Homo sapiens, UniProt Q05586+Q13224) | criterion not met |
| CC[C@@H](O)C(C[C@@H](C)NC)(c1ccccc1)c1ccccc1 [(3R,6R)-NML] | GluN1-GluN2B NMDAR subtype (Homo sapiens, UniProt Q05586+Q13224) | criterion not met |
| CNC1(c2ccccc2Cl)CCCCC1=O (racemic) [(±)-ketamine, reference compound] | GluN1-GluN2B NMDAR subtype (Homo sapiens, UniProt Q05586+Q13224) | criterion met |
| C[C@]12N[C@H](Cc3ccccc31)c1ccccc12 [(+)-MK-801, reference compound] | GluN1-GluN2B NMDAR subtype (Homo sapiens, UniProt Q05586+Q13224) | criterion met |

Decide: pIC50 (mean ± SEM) GluN1-GluN2B of CC[C@@H](O)C(C[C@@H](C)N(C)C)(c1ccccc1)c1ccccc1 [(3R,6R)-ML] >= 5?
criterion not met

Decide: pIC50 (mean ± SEM) GluN1-GluN2B of CC[C@@H](O)C(C[C@@H](C)N)(c1ccccc1)c1ccccc1 [(3R,6R)-DNML, (3R,6R)-6-amino-4,4-diphenylheptan-3-ol] >= 5?
criterion not met

Decide: pIC50 (mean ± SEM) GluN1-GluN2B of CC[C@H](O)C(C[C@H](C)N)(c1ccccc1)c1ccccc1 [(3S,6S)-DNML, (3S,6S)-6-amino-4,4-diphenylheptan-3-ol] >= 5?
criterion not met

Decide: pIC50 (mean ± SEM) GluN1-GluN2B of CC[C@@H](O)C(C[C@H](C)NC)(c1ccccc1)c1ccccc1 [(3R,6S)-NML] >= 5?
criterion not met

Decide: pIC50 (mean ± SEM) GluN1-GluN2B of COc1ccc2c(c1)[C@]13CCCC[C@@H]1[C@H](C2)N(C)CC3 [dextromethorphan, reference compound] >= 5?
criterion not met

Where do these numbers come from? They come from paper PMC11912475.
